Let's look at some molecules and their measured IC50.
# MEASUREMENT_TARGET: 72 kDa type IV collagenase (Homo sapiens)
# Sequence (P08253 whole entry): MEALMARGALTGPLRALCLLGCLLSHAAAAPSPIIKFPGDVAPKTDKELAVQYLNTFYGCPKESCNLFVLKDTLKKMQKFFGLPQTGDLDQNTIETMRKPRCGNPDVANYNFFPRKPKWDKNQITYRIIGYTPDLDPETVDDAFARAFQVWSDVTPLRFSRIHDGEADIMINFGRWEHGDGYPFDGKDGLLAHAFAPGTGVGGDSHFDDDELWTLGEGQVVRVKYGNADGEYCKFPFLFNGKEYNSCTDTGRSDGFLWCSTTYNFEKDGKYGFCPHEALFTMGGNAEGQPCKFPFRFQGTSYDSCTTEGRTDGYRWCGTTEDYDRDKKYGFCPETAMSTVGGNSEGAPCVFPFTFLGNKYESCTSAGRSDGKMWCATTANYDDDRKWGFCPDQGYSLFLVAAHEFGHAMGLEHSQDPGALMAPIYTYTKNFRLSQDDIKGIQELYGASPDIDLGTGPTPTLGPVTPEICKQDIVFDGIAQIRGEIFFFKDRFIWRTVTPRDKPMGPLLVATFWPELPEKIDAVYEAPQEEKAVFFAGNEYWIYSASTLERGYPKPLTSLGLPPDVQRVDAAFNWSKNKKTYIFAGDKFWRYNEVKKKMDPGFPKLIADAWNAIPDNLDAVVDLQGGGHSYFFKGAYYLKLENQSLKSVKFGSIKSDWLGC
# ASSAY_PROTOCOL: Inhibition of p-aminophenylmercuric acetate stimulated human recombinant MMP-2 using (7-methoxycoumarin-4-yl)-acetyl-pro-Leu-Gly-Leu-(3-(2,4-dinitrophenyl)-L-2,3-diaminopropionyl)-Ala-Arg-NH2 as substrate after 45 mins by fluorogenic assay

MOLECULE: CN(CCO)C1(c2ccc(Oc3ccccc3)cc2)C(=O)NC(=O)NC1=O
IC50 / nM: 24

MOLECULE: O=C1NC(=O)C(c2ccc(Oc3ccccc3)cc2)(N2CCC(CO)CC2)C(=O)N1
IC50 / nM: 66

MOLECULE: CN(CCO[N+](=O)[O-])C1(c2ccc(Oc3ccccc3)cc2)C(=O)NC(=O)NC1=O
IC50 / nM: 53

MOLECULE: O=C1NC(=O)C(c2ccc(Oc3ccccc3)cc2)(N(CCO)CCO)C(=O)N1
IC50 / nM: 3.8

MOLECULE: O=C1NC(=O)C(c2ccc(Oc3ccccc3)cc2)(N2CCCC(CO[N+](=O)[O-])C2)C(=O)N1 (stereo unspecified)
IC50 / nM: 179

MOLECULE: O=C1NC(=O)C(c2ccc(Oc3ccccc3)cc2)(N2CCN(CCO[N+](=O)[O-])CC2)C(=O)N1
IC50 / nM: 149

MOLECULE: O=C1NC(=O)C(c2ccc(Oc3ccccc3)cc2)(N2CCCC(CO)C2)C(=O)N1 (stereo unspecified)
IC50 / nM: 15

MOLECULE: O=C1NC(=O)C(c2ccc(Oc3ccccc3)cc2)(N(CCO[N+](=O)[O-])CCO[N+](=O)[O-])C(=O)N1
IC50 / nM: 328

MOLECULE: O=C1NC(=O)C(c2ccc(Oc3ccccc3)cc2)(N2CCC(CO[N+](=O)[O-])CC2)C(=O)N1
IC50 / nM: 219

MOLECULE: O=C1NC(=O)C(c2ccc(Oc3ccccc3)cc2)(N2CCC(CCO[N+](=O)[O-])CC2)C(=O)N1
IC50 / nM: 158

MOLECULE: O=C1NC(=O)C(c2ccc(Oc3ccccc3)cc2)(N2CCC(CCO)CC2)C(=O)N1
IC50 / nM: 10

The measured values listed here are drawn from ChEMBL document CHEMBL2062484.
